METHOD: Cellular uptake in adriamycin-resistant human A2780 cells plasma membrane at 5 uM after 5 mins by confocal microscopic analysis
Type: ADME, cell-based
ASSAY CONDITIONS: a2780, 5 min
RECORDED ENDPOINT: Drug uptake

Here's what some known entries look like.
CN1/C(=C\c2cc[n+](CCCCCC(=O)N[C@@H](CCCNC(=N)N)C(=O)N[C@@H](CCCNC(=N)N)C(=O)N[C@@H](CCCNC(=N)N)C(=O)N[C@@H](CCCNC(=N)N)C(=O)N[C@@H](CCCNC(=N)N)C(=O)N[C@@H](CCCNC(=N)N)C(=O)N[C@H](CCCCNC(=O)CCCc3ccc(N(CCCl)CCCl)cc3)C(N)=O)c3ccccc23)Sc2ccccc21 : Not Active
CN1/C(=C\c2cc[n+](CCCCCC(=O)N[C@@H](Cc3ccncc3)C(=O)N[C@H](CCCNC(=N)N)C(=O)N[C@@H](Cc3ccncc3)C(=O)N[C@H](CCCNC(=N)N)C(=O)N[C@@H](Cc3ccncc3)C(=O)N[C@H](CCCNC(=N)N)C(=O)N[C@H](CCCCNC(=O)CCCc3ccc(N(CCCl)CCCl)cc3)C(N)=O)c3ccccc23)Sc2ccccc21 : Active
CN1/C(=C\c2cc[n+](CCCCCC(=O)N[C@@H](Cc3ccccc3)C(=O)N[C@H](CCCNC(=N)N)C(=O)N[C@@H](Cc3ccccc3)C(=O)N[C@H](CCCNC(=N)N)C(=O)N[C@@H](Cc3ccccc3)C(=O)N[C@H](CCCNC(=N)N)C(=O)N[C@H](CCCCNC(=O)CCCc3ccc(N(CCCl)CCCl)cc3)C(N)=O)c3ccccc23)Sc2ccccc21 : Active
CN1/C(=C\c2cc[n+](CCCCCC(=O)N[C@@H](Cc3ccc(O)cc3)C(=O)N[C@H](CCCNC(=N)N)C(=O)N[C@@H](Cc3ccc(O)cc3)C(=O)N[C@H](CCCNC(=N)N)C(=O)N[C@@H](Cc3ccc(O)cc3)C(=O)N[C@H](CCCNC(=N)N)C(=O)N[C@H](CCCCNC(=O)CCCc3ccc(N(CCCl)CCCl)cc3)C(N)=O)c3ccccc23)Sc2ccccc21 : Not Active

Bench note: what Drug uptake did CN1/C(=C\c2cc[n+](CCCCCC(=O)N[C@@H](CC3CCCCC3)C(=O)N[C@H](CCCNC(=N)N)C(=O)N[C@@H](CC3CCCCC3)C(=O)N[C@H](CCCNC(=N)N)C(=O)N[C@@H](CC3CCCCC3)C(=O)N[C@H](CCCNC(=N)N)C(=O)N[C@H](CCCCNC(=O)CCCc3ccc(N(CCCl)CCCl)cc3)C(N)=O)c3ccccc23)Sc2ccccc21 show?
Active
